Measured values drawn from ChEMBL document CHEMBL3785072 for this set.

- protocol-notes: Selectivity index, ratio of CC50 for human TZM-bl cells to EC50 for R5-tropic HIV1 subtype B BaL infected in human TZM-bl cells
- Type: toxicity, cell-based
- test-parameters: TZM-bl cells, read-out: Selectivity Index
Please respond with reported selectivity ratio for every item in the list.

Consider the following illustrative entries.
| smiles-text | selectivity ratio |
| --- | --- |
| Cc1cc(C#N)cc(C)c1Nc1ccc(F)c(Nc2ccc(Cl)cc2)n1 | 2000 |
| Cc1cc(C)c(Nc2ccc(F)c(Nc3ccc(C#N)cc3)n2)c(C)c1 | 2000 |

Could you tell me which selectivity ratio is on file for Cc1cc(C)c(Nc2ccnc(Nc3ccc(C#N)cc3)n2)c(C)c1 ?
2000
